# ASSAY_TARGET: T1, human PCSK9 (human, UniProt Q8NBP7 31-692, limits assumed)
# T1 construct: also called hPCSK9; huPCSK9
# T1 sequence (Q8NBP7 31-692 limits assumed): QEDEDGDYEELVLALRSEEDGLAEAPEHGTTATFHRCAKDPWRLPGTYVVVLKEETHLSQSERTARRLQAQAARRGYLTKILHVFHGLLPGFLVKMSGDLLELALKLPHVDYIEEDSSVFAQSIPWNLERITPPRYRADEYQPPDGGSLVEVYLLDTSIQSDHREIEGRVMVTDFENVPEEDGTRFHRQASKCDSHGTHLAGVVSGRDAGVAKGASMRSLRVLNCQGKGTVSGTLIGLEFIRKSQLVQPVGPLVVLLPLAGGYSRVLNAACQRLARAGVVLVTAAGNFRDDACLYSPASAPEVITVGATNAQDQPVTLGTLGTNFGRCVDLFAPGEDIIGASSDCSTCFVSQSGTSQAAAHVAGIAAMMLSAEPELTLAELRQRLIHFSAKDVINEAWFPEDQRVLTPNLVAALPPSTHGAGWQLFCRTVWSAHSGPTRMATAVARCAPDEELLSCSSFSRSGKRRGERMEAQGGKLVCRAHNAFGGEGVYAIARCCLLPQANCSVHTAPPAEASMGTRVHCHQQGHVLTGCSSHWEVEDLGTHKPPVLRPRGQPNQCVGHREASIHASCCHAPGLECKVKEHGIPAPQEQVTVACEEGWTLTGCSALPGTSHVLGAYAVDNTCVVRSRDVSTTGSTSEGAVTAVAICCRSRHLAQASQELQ
# MEASUREMENT_NOTES: SPR Biacore 3000, captured IgG, hPCSK9 injected, pH 5.5
# Procedure: These antibodies were expressed and purified for determination of their KD at 7.4 and their KD ratio of pH5.5/pH 7.4, as measured on a surface plasmon resonance Biacore 3000 biosensor equipped with a research-grade sensor chip using HBS-EP running buffer (Biacore AB, Uppsala, Sweden—now GE Healthcare). […] Dissociation was monitored for 5 min. […]
MEASURED_QUANTITY: Kd (nM)
Numeric answer only, unit nM assumed.

Here's what some known entries look like.
5L1724H23 (antibody, V domains shown, Triple histidine mutant of h5A10; Only CDRs printed; Full-length IgG) VH: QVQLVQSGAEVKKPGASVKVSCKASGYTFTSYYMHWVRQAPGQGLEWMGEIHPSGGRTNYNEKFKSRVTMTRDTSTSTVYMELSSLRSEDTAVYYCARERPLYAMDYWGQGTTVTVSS VL: DIQMTQSPSSLSASVGDRVTITCKASQDVHTAVAWYQQKPGKAPKLLIYSASHRYTGVPSRFSGSGSGTDFTFTISSLQPEDIATYYCQQRYSTPRTFGQGTKLEIK; 39
5L1724H23_6L3H3 (antibody, V domains shown, Only CDRs printed; Full-length IgG) VH: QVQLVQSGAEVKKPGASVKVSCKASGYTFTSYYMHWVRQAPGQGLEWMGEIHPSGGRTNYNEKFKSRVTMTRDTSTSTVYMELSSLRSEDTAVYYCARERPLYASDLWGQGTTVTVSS VL: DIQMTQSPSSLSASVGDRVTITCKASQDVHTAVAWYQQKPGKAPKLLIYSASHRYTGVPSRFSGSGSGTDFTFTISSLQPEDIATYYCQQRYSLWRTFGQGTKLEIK; 83
5L1721H23_6L3 (antibody, V domains shown, Tested as full-length IgG; also called heavy UC-H5H23, light UC-H5L1721-6L3) VH: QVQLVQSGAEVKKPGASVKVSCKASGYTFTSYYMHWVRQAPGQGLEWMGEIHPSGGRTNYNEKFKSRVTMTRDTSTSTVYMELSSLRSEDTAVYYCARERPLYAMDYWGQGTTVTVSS VL: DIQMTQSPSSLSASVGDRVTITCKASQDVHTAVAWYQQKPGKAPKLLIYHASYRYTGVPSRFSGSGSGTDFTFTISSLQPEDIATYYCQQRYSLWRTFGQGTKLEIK; 257
5L1724H23_6L3 (antibody, V domains shown, Only CDRs printed; Full-length IgG) VH: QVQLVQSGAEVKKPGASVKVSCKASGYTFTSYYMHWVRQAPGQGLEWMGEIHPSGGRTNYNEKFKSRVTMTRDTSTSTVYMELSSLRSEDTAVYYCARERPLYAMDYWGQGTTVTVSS VL: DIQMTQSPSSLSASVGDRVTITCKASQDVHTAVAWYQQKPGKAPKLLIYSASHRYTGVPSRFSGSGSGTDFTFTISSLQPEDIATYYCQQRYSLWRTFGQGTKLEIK; 540
6L1721H23 (antibody, V domains shown, L1L3-based mutant; Full-length IgG) VH: QVQLVQSGAEVKKPGASVKVSCKASGYTFTSYYMHWVRQAPGQGLEWMGEIHPFGGRTNYNEKFKSRVTMTRDTSTSTVYMELSSLRSEDTAVYYCARERPLYASDLWGQGTTVTVSS VL: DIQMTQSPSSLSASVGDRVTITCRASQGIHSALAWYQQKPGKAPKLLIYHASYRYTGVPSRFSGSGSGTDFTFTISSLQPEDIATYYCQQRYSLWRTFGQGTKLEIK; 24
5L1721H23_6H3 (antibody, V domains shown, Only CDRs printed; Full-length IgG) VH: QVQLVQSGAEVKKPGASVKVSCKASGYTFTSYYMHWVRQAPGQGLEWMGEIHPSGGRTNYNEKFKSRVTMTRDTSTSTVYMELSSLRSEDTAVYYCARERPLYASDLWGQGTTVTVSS VL: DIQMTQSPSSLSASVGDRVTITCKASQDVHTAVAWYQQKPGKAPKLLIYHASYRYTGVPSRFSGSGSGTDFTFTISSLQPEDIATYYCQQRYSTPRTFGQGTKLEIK; 55
6L1721 (antibody, V domains shown, L1L3-based mutant; Tested as full-length IgG) VH: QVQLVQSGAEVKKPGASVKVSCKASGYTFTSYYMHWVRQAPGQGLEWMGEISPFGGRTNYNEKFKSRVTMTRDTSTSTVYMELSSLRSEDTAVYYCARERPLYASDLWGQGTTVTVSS VL: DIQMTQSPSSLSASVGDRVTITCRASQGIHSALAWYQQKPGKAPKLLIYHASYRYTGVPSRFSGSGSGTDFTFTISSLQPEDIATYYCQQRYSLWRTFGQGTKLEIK; 5.1
5L1721H23 (antibody, V domains shown, Triple histidine mutant of h5A10; Only CDRs printed; Full-length IgG) VH: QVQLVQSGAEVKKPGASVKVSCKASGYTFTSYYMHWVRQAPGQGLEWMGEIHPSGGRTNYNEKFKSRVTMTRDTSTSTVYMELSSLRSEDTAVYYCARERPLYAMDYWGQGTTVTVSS VL: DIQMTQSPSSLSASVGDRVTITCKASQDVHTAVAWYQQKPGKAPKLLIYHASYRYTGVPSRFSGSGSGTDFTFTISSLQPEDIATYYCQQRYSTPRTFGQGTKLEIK; 144

Now, please, on to the next binder.
-- ask Would you kindly share the measured Kd for 6L21H2335 (antibody, V domains shown) VH: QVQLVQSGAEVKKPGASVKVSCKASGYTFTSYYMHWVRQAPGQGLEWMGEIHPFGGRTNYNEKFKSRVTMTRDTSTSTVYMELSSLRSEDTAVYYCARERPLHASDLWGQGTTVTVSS VL: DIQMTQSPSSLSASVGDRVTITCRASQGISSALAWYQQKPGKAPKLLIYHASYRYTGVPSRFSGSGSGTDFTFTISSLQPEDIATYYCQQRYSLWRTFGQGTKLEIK ?
-- reply 363
